test system: 496974-208-R-J2-PDC complex spheroids, growth % test/control; assay: Anticancer human tumor 496974-208-R-J2-PDC patient-derived pancreatic carcinoma cell line growth inhibition [CLK]; settings: second compound 3.16 µM; first compound 0.01 µM; active = viability on the fitted dose curve at most 10% of control; inactive = the rest
Hello, when you answer, please use one of the following outcomes: t (active), f (inactive)

Cn1ncnc1[C@H]1c2n[nH]c(=O)c3cc(F)cc(c23)N[C@@H]1c1ccc(F)cc1 + CNC(=O)c1ccc(Nc2nc(OC3CCCC3)c3c(-c4ccc5nc(C)oc5c4)c[nH]c3n2)c(OC)c1 : f
Cn1ncnc1[C@H]1c2n[nH]c(=O)c3cc(F)cc(c23)N[C@@H]1c1ccc(F)cc1 + CN1CCN(c2cc(C(=O)Nc3cc4cc(-c5cnn(C)c5)ccc4cn3)ccn2)CC1 : t

// next entry
Status in this test for COc1c(OCCCN2CCOCC2)ccc2c3n(c(=NC(=O)c4cnc(N)nc4)nc12)CCN3 + CNC(=O)c1ccc(Nc2nc(OC3CCCC3)c3c(-c4ccc5nc(C)oc5c4)c[nH]c3n2)c(OC)c1 ?
f

* * *

test system: 496974-208-R-J2-PDC complex spheroids, growth % test/control; experiment: Anticancer human tumor 496974-208-R-J2-PDC cell line growth inhibition [CLK]; conditions: second compound 0.0316 µM; first compound 0.00949 µM; stronger effect = lower value;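 note: spheroids exposed to the drugs for 7 days before readout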;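 for viability, T/C: 100% = DMSO vehicle control wells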
Classify: True when viability, T/C is strictly less than 80%; False when viability, T/C is not.

Solved entries:
C=CC(=O)Nc1cc(Nc2nccc(-c3cn(C)c4ccccc34)n2)c(OC)cc1N(C)CCN(C)C + CNC(=O)c1ccc(Nc2nc(OC3CCCC3)c3c(-c4ccc5nc(C)oc5c4)c[nH]c3n2)c(OC)c1 : False
C=CC(=O)Nc1cc(Nc2nccc(-c3cn(C)c4ccccc34)n2)c(OC)cc1N(C)CCN(C)C + CN1CCN(c2cc(C(=O)Nc3cc4cc(-c5cnn(C)c5)ccc4cn3)ccn2)CC1 : False
CC(C)CC(NC(=O)C(Cc1ccccc1)NC(=O)c1cnccn1)B(O)O (stereo not given) + CN1CCN(c2cc(C(=O)Nc3cc4cc(-c5cnn(C)c5)ccc4cn3)ccn2)CC1 : True

Record NC(=O)C(=Cn1cnc(-c2cc(C(F)(F)F)cc(C(F)(F)F)c2)n1)c1cncnc1 + CN1CCN(c2cc(C(=O)Nc3cc4cc(-c5cnn(C)c5)ccc4cn3)ccn2)CC1 : is its viability, T/C strictly below 80%?
False

Check if viability, T/C falls below 80% for NC(=O)C(=Cn1cnc(-c2cc(C(F)(F)F)cc(C(F)(F)F)c2)n1)c1cncnc1 + CNC(=O)c1ccc(Nc2nc(OC3CCCC3)c3c(-c4ccc5nc(C)oc5c4)c[nH]c3n2)c(OC)c1 .
False

* * *

Test system: 496974-208-R-J2-PDC complex spheroids, growth % test/control
Test: Anticancer human tumor 496974-208-R-J2-PDC cell line growth inhibition [CLK];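 note: spheroids exposed to the drugs for 7 days before readout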;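 for viability, T/C: 100% = DMSO vehicle control wells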
Conditions: second compound 0.316 µM; first compound 0.03 µM; stronger effect = lower value
From the text: A high-throughput screen of multi-cell type tumor spheroids was designed to identify active combinations of […] and targeted small molecules. Complex spheroids include a stromal component modeled by human endothelial cells (HUVEC) and fibroblasts modeled by human mesenchymal stem cells (MSCs). […] Compounds. […] If the clinical Cmax for an agent had not been determined, the highest concentration tested was 10 microM. […]
viability, T/C strictly less than 5% = Satisfied. Otherwise Not satisfied.

In the record for C=CC(=O)Nc1cc(Nc2nccc(-c3cn(C)c4ccccc34)n2)c(OC)cc1N(C)CCN(C)C + CNC(=O)c1ccc(Nc2nc(OC3CCCC3)c3c(-c4ccc5nc(C)oc5c4)c[nH]c3n2)c(OC)c1 , is viability, T/C less than 5%?
Not satisfied

For this compound, is viability, T/C lower than 5%? NC(=O)C(=Cn1cnc(-c2cc(C(F)(F)F)cc(C(F)(F)F)c2)n1)c1cncnc1 + CNC(=O)c1ccc(Nc2nc(OC3CCCC3)c3c(-c4ccc5nc(C)oc5c4)c[nH]c3n2)c(OC)c1
Not satisfied

Does CC(C)CC(NC(=O)C(Cc1ccccc1)NC(=O)c1cnccn1)B(O)O (stereo not given) + CN1CCN(c2cc(C(=O)Nc3cc4cc(-c5cnn(C)c5)ccc4cn3)ccn2)CC1 have viability, T/C strictly under 5%?
Satisfied

Record C=CC(=O)Nc1cc(Nc2nccc(-c3cn(C)c4ccccc34)n2)c(OC)cc1N(C)CCN(C)C + CN1CCN(c2cc(C(=O)Nc3cc4cc(-c5cnn(C)c5)ccc4cn3)ccn2)CC1 : is its viability, T/C strictly below 5%?
Satisfied

Would you kindly verify if viability, T/C of NC(=O)C(=Cn1cnc(-c2cc(C(F)(F)F)cc(C(F)(F)F)c2)n1)c1cncnc1 + CN1CCN(c2cc(C(=O)Nc3cc4cc(-c5cnn(C)c5)ccc4cn3)ccn2)CC1 is strictly less than 5%?
Satisfied

* * *

tested on: 496974-208-R-J2-PDC complex spheroids, growth % test/control; assay: Anticancer human tumor 496974-208-R-J2-PDC cell line growth inhibition [CLK]; details: curve of first compound; second compound 0.1 µM;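 note: spheroids exposed to the drugs for 7 days before readout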
MEASURED ATTRIBUTE: IC50 (µM)
Please give a number only; it is taken to be in µM.

Worked examples follow.
COc1ccc([C@@H](O)c2cc(-c3ncnc4cc(N5CCOCC5)ccc34)c(F)cc2Cl)nn1 + CNC(=O)c1ccc(Nc2nc(OC3CCCC3)c3c(-c4ccc5nc(C)oc5c4)c[nH]c3n2)c(OC)c1 : 6.16
CC(Nc1ccc2c(c1)OCCn1cc(N3C(=O)OCC3C(F)F)nc1-2)C(N)=O (stereo not drawn) + CNC(=O)c1ccc(Nc2nc(OC3CCCC3)c3c(-c4ccc5nc(C)oc5c4)c[nH]c3n2)c(OC)c1 : 0.184

Please look at the following molecule next.
Identify the measured IC50 of Nc1ccccc1NC(=O)c1ccc(CNC(=O)OCc2cccnc2)cc1 + CNC(=O)c1ccc(Nc2nc(OC3CCCC3)c3c(-c4ccc5nc(C)oc5c4)c[nH]c3n2)c(OC)c1 for 496974-208-R-J2-PDC complex spheroids, growth % test/control.
4.53

* * *

Test system: 496974-208-R-J2-PDC complex spheroids, growth % test/control
Assay: Anticancer human tumor 496974-208-R-J2-PDC cell line growth inhibition [CLK];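 note: spheroids exposed to the drugs for 7 days before readout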;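 for viability, T/C: 100% = DMSO vehicle control wells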
Details: second compound 0.1 µM; first compound 0.1 µM; stronger effect = lower value
Description: A high-throughput screen of multi-cell type tumor spheroids was designed to identify active combinations of […] and targeted small molecules. Complex spheroids include a stromal component modeled by human endothelial cells (HUVEC) and fibroblasts modeled by human mesenchymal stem cells (MSCs). […] Compounds. […] If the clinical Cmax for an agent had not been determined, the highest concentration tested was 10 microM. […]
Catalogue of compounds with associated viability, T/C
Express your answer in %, writing the number without its unit.

Consider the following illustrative entries.
CC(CO)NC(=O)c1cc(-c2ccc(Cl)cc2)nn(-c2cnn(C)c2)c1=O (centres undefined) + CN1CCN(c2cc(C(=O)Nc3cc4cc(-c5cnn(C)c5)ccc4cn3)ccn2)CC1 : 90.1
COc1ccc([C@@H](O)c2cc(-c3ncnc4cc(N5CCOCC5)ccc34)c(F)cc2Cl)nn1 + CNC(=O)c1ccc(Nc2nc(OC3CCCC3)c3c(-c4ccc5nc(C)oc5c4)c[nH]c3n2)c(OC)c1 : 75.8
Cn1ncnc1[C@H]1c2n[nH]c(=O)c3cc(F)cc(c23)N[C@@H]1c1ccc(F)cc1 + CN1CCN(c2cc(C(=O)Nc3cc4cc(-c5cnn(C)c5)ccc4cn3)ccn2)CC1 : 63.7

Turning now to a further compound:
Form field: reported viability, T/C of CC(Nc1ccc2c(c1)OCCn1cc(N3C(=O)OCC3C(F)F)nc1-2)C(N)=O (centres undefined) + CN1CCN(c2cc(C(=O)Nc3cc4cc(-c5cnn(C)c5)ccc4cn3)ccn2)CC1
51.2

* * *

test system: 496974-208-R-J2-PDC complex spheroids, growth % test/control; assay: Anticancer human tumor 496974-208-R-J2-PDC cell line growth inhibition [CLK]; conditions: curve of first compound; second compound 1 µM;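 note: spheroids exposed to the drugs for 7 days before readout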
pIC50: −log10 of the molar value.
# pIC50 values compiled below

Item: C=CC(=O)N1CCN(c2nc(=O)n(-c3c(C)ccnc3C(C)C)c3nc(-c4c(O)cccc4F)c(F)cc23)C(C)C1 (stereo unspecified) + CN1CCN(c2cc(C(=O)Nc3cc4cc(-c5cnn(C)c5)ccc4cn3)ccn2)CC1 Test system: 496974-208-R-J2-PDC complex spheroids, growth % test/control Read-out: pIC50 Value: ?
> 7.50

What reported pIC50 corresponds to CC(=O)O[C@H]1C(=O)[C@@]2(C)[C@H]([C@H](OC(=O)c3ccccc3)[C@]3(O)C[C@H](OC(=O)[C@H](O)[C@@H](NC(=O)c4ccccc4)c4ccccc4)C(C)=C1C3(C)C)[C@]1(OC(C)=O)CO[C@@H]1C[C@@H]2O + CN1CCN(c2cc(C(=O)Nc3cc4cc(-c5cnn(C)c5)ccc4cn3)ccn2)CC1 on 496974-208-R-J2-PDC complex spheroids, growth % test/control?
> 7.50

// lookup pIC50 | system=496974-208-R-J2-PDC complex spheroids, growth % test/control | key= Cn1ncnc1[C@H]1c2n[nH]c(=O)c3cc(F)cc(c23)N[C@@H]1c1ccc(F)cc1 + CNC(=O)c1ccc(Nc2nc(OC3CCCC3)c3c(-c4ccc5nc(C)oc5c4)c[nH]c3n2)c(OC)c1
< 7.00

Checklist item: pIC50 tested on 496974-208-R-J2-PDC complex spheroids, growth % test/control, entry C=CC(=O)Nc1cc(Nc2nccc(-c3cn(C)c4ccccc34)n2)c(OC)cc1N(C)CCN(C)C + CN1CCN(c2cc(C(=O)Nc3cc4cc(-c5cnn(C)c5)ccc4cn3)ccn2)CC1 , value?
> 9.02

Record lookup: for 496974-208-R-J2-PDC complex spheroids, growth % test/control, what pIC50 belongs to O=c1[nH]cc(F)c(=O)[nH]1 + CN1CCN(c2cc(C(=O)Nc3cc4cc(-c5cnn(C)c5)ccc4cn3)ccn2)CC1 ?
> 7.50

Requested read-out pIC50, target or system 496974-208-R-J2-PDC complex spheroids, growth % test/control, entry COc1c(OCCCN2CCOCC2)ccc2c3n(c(=NC(=O)c4cnc(N)nc4)nc12)CCN3 + CN1CCN(c2cc(C(=O)Nc3cc4cc(-c5cnn(C)c5)ccc4cn3)ccn2)CC1
> 8.50
